Measured GI50 of individual entries
- System: MSTO-211H
- assaySummary: Growth inhibition in human MSTO-211H cells after 72 hrs by trypan blue dye-based assay
- Type: functional
A number alone suffices; assume nM.

compound | unitsOfMeasure | GI50
Cc1c2ccncc2c(C)c2c1[nH]c1ccccc12 | nM | 770
CN(C)CCn1c2ccc(Cl)cc2c2sc3cc(Cl)ccc3c(=O)c21 | nM | 1640
CCN(CC)CCn1c2ccc(OC)cc2c2sc3ccccc3c(=O)c21 | nM | 1610
COc1ccc2c(c1)c1sc3ncccc3c(=O)c1n2CCN(C)C | nM | 750

Alright, here's another compound for you.
Dear colleague, I am looking for the recorded GI50 of the following compound: CN(C)CCn1c2ccccc2c2sc3ncccc3c(=O)c21
1080

----------
- System: MSTO-211H
- assaySummary: Growth inhibition in human MSTO-211H cells after 72 hrs by trypan blue dye-based assay
- Type: functional
Could you mark each record condition met if its GI50 falls strictly under 2000 nM, and condition not met if it equals or exceeds it?

compound | classification
CCN(CC)CCn1c2cc(OC)c(OC)cc2c2sc3cc(Cl)ccc3c(=O)c21 | condition not met
CCN(CC)CCn1c2ccc(Cl)cc2c2sc3cc(Cl)ccc3c(=O)c21 | condition not met
COc1cc2c3sc4ccccc4c(=O)c3n(CCN(C)C)c2cc1OC | condition met
COc1ccc2c(c1)c1sc3cc(Cl)ccc3c(=O)c1n2CCN(C)C | condition not met
CCN(CC)CCn1c2cc(OC)c(OC)cc2c2sc3cc(OC)ccc3c(=O)c21 | condition met

Report whether reported GI50 is lower than 2000 nM (strictly) for CCN(CC)CCn1c2ccc(Cl)cc2c2sc3ncccc3c(=O)c21
condition met

Report whether reported GI50 is lower than 2000 nM (strictly) for CCN(CC)CCn1c2cc(OC)c(OC)cc2c2sc3ncccc3c(=O)c21
condition met

Report whether reported GI50 is lower than 2000 nM (strictly) for CCN(CC)CCn1c2ccc(OC)cc2c2sc3ncccc3c(=O)c21
condition met

Report whether reported GI50 is lower than 2000 nM (strictly) for CCN(CC)CCn1c2ccccc2c2sc3ncccc3c(=O)c21
condition met

Report whether reported GI50 is lower than 2000 nM (strictly) for CN(C)CCn1c2ccc(Cl)cc2c2sc3ncccc3c(=O)c21
condition not met

Report whether reported GI50 is lower than 2000 nM (strictly) for COc1cc2c3sc4ncccc4c(=O)c3n(CCN(C)C)c2cc1OC
condition met

----------
- testedTarget: DNA topoisomerase 1 (Homo sapiens)
- assaySummary: Poison activity at recombinant human topoisomerase-1 assessed as stabilization of covalent topo-1-DNA cleavage complex by measuring nicked DNA formation at 0.5 to 50 uM using supercoiled pBR322 DNA as substrate after 60 mins by agarose gel electrophoresis method
The source made the active and inactive calls. No cut-off for these calls is given here.
Your reply should match one of these outcome classes. TRUE = active, FALSE = inactive

compound | classification
COc1cc2c3sc4ncccc4c(=O)c3n(CCN(C)C)c2cc1OC | TRUE
COc1ccc2c(c1)c1sc3ccccc3c(=O)c1n2CCN(C)C | FALSE
CCN(CC)CCn1c2cc(OC)c(OC)cc2c2sc3ncccc3c(=O)c21 | TRUE
COc1cc2c3sc4cc(Cl)ccc4c(=O)c3n(CCN(C)C)c2cc1OC | FALSE
CN(C)CCn1c2ccc(Cl)cc2c2sc3ncccc3c(=O)c21 | FALSE
COc1ccc2c(c1)c1sc3ncccc3c(=O)c1n2CCN(C)C | FALSE
CCN(CC)CCn1c2cc(OC)c(OC)cc2c2sc3ccccc3c(=O)c21 | TRUE
COc1ccc2c(c1)c1sc3cc(Cl)ccc3c(=O)c1n2CCN(C)C | FALSE
CCN(CC)CCn1c2ccc(OC)cc2c2sc3ccccc3c(=O)c21 | FALSE
COc1cc2c3sc4ccccc4c(=O)c3n(CCN(C)C)c2cc1OC | TRUE

Note: attention shifts to another entry.
Hi, do you know how CCN(CC)CCn1c2ccccc2c2sc3ncccc3c(=O)c21 came out in this test?
FALSE

----------
- testedTarget: UniProt:P11387
- Sequence (whole entry): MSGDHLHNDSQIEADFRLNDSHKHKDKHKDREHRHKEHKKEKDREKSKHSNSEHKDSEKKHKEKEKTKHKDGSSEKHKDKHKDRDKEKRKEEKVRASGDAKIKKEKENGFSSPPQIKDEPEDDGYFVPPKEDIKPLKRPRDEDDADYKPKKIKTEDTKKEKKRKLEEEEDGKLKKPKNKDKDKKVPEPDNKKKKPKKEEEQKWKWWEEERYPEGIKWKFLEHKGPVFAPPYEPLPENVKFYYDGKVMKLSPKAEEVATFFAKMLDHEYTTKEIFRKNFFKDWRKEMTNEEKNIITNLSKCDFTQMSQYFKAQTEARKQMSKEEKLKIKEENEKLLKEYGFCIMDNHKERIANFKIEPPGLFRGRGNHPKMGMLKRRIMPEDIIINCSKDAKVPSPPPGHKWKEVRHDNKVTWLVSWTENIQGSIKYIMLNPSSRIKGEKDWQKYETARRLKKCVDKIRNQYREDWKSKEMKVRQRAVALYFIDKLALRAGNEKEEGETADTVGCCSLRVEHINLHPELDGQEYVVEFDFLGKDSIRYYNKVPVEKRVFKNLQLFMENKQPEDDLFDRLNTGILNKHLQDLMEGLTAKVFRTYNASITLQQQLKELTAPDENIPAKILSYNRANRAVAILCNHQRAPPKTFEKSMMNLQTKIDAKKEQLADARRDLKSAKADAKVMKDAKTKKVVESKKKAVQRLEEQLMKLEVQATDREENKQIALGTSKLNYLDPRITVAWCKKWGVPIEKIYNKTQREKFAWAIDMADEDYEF
- assaySummary: Inhibition of recombinant human topoisomerase 1 assessed as decrease in relaxation of supercoiled pBR322 DNA after 60 mins by ethidium bromide staining based agarose gel electrophoresis method

compound | inhibition
COc1ccc2c(c1)c1sc3ncccc3c(=O)c1n2CCN(C)C | Dose-dependent effect
CCN(CC)CCn1c2cc(OC)c(OC)cc2c2sc3cc(OC)ccc3c(=O)c21 | Dose-dependent effect
CCN(CC)CCn1c2cc(OC)c(OC)cc2c2sc3cc(Cl)ccc3c(=O)c21 | Dose-dependent effect

Cited source: ChEMBL document CHEMBL4400511
